# System: 496974-208-R-J2-PDC complex spheroids, growth % test/control
# assay_details: Anticancer human tumor 496974-208-R-J2-PDC patient-derived pancreatic carcinoma cell line growth inhibition [CLK]
# reported_conditions: second compound 10 µM; first compound 10 µM; stronger effect = lower value
observation_type: viability, T/C (%)
Give bare numbers, in %.

molecule	tgt	observation_type	result
COC1C=CCC(C)C(C)S(=O)(=O)NC(=O)c2ccc3c(c2)N(CC2CCC21)CC1(CCCc2cc(Cl)ccc21)CO3 (stereo not given) + CNC(=O)c1ccc(Nc2nc(OC3CCCC3)c3c(-c4ccc5nc(C)oc5c4)c[nH]c3n2)c(OC)c1	496974-208-R-J2-PDC complex spheroids, growth % test/control	viability, T/C	24.1
COc1ccc([C@@H](O)c2cc(-c3ncnc4cc(N5CCOCC5)ccc34)c(F)cc2Cl)nn1 + CNC(=O)c1ccc(Nc2nc(OC3CCCC3)c3c(-c4ccc5nc(C)oc5c4)c[nH]c3n2)c(OC)c1	496974-208-R-J2-PDC complex spheroids, growth % test/control	viability, T/C	14.2
CCCS(=O)(=O)Nc1ccc(F)c(C(=O)c2c[nH]c3ncc(-c4ccc(Cl)cc4)cc23)c1F + CN1CCN(c2cc(C(=O)Nc3cc4cc(-c5cnn(C)c5)ccc4cn3)ccn2)CC1	496974-208-R-J2-PDC complex spheroids, growth % test/control	viability, T/C	0.99
C=C(F)C(=O)N1CCN(c2nc(OCC3CCCN3C)nc3c2CCN(c2cccc4cccc(Cl)c24)C3)CC1CC#N (stereo not given) + CNC(=O)c1ccc(Nc2nc(OC3CCCC3)c3c(-c4ccc5nc(C)oc5c4)c[nH]c3n2)c(OC)c1	496974-208-R-J2-PDC complex spheroids, growth % test/control	viability, T/C	1.59

Now consider a different molecule.
Input Nc1ccn(C2OC(CO)C(O)C2(F)F)c(=O)n1 (stereo not given) + CN1CCN(c2cc(C(=O)Nc3cc4cc(-c5cnn(C)c5)ccc4cn3)ccn2)CC1 . Output viability, T/C: 0.29

* * *

# Test system: 496974-208-R-J2-PDC complex spheroids, growth % test/control
# assay_details: Anticancer human tumor 496974-208-R-J2-PDC cell line growth inhibition [CLK];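 note: spheroids exposed to the drugs for 7 days before readout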
# reported_conditions: curve of first compound; second compound 10 µM
Field: IC50. Provide a value for each of the compounds that follow.

Recorded IC50, per entry:
compound	tgt	result
COc1c(OCCCN2CCOCC2)ccc2c3n(c(=NC(=O)c4cnc(N)nc4)nc12)CCN3 + CNC(=O)c1ccc(Nc2nc(OC3CCCC3)c3c(-c4ccc5nc(C)oc5c4)c[nH]c3n2)c(OC)c1	496974-208-R-J2-PDC complex spheroids, growth % test/control	0.00325 µM
O=C(c1cc(Cc2n[nH]c(=O)c3ccccc23)ccc1F)N1CCN(C(=O)C2CC2)CC1 + CN1CCN(c2cc(C(=O)Nc3cc4cc(-c5cnn(C)c5)ccc4cn3)ccn2)CC1	496974-208-R-J2-PDC complex spheroids, growth % test/control	< 0.0316 µM
CCc1c2c(nc3ccc(O)cc13)-c1cc3c(c(=O)n1C2)COC(=O)[C@]3(O)CC + CN1CCN(c2cc(C(=O)Nc3cc4cc(-c5cnn(C)c5)ccc4cn3)ccn2)CC1	496974-208-R-J2-PDC complex spheroids, growth % test/control	< 0.00316 µM
COc1cccc2c1C(=O)c1c(O)c3c(c(O)c1C2=O)CC(O)(C(=O)CO)CC3OC1CC(N)C(O)C(C)O1 (centres undefined) + CNC(=O)c1ccc(Nc2nc(OC3CCCC3)c3c(-c4ccc5nc(C)oc5c4)c[nH]c3n2)c(OC)c1	496974-208-R-J2-PDC complex spheroids, growth % test/control	0.0536 µM
Cn1ncnc1[C@H]1c2n[nH]c(=O)c3cc(F)cc(c23)N[C@@H]1c1ccc(F)cc1 + CNC(=O)c1ccc(Nc2nc(OC3CCCC3)c3c(-c4ccc5nc(C)oc5c4)c[nH]c3n2)c(OC)c1	496974-208-R-J2-PDC complex spheroids, growth % test/control	> 0.1 µM
C#Cc1c(F)ccc2cc(O)cc(-c3ncc4c(N5CC6CCC(C5)N6)nc(OCC56CCCN5CC(F)C6)nc4c3F)c12 (centres undefined) + CN1CCN(c2cc(C(=O)Nc3cc4cc(-c5cnn(C)c5)ccc4cn3)ccn2)CC1	496974-208-R-J2-PDC complex spheroids, growth % test/control	< 0.0316 µM
CC(=O)O[C@H]1C(=O)[C@@]2(C)[C@H]([C@H](OC(=O)c3ccccc3)[C@]3(O)C[C@H](OC(=O)[C@H](O)[C@@H](NC(=O)c4ccccc4)c4ccccc4)C(C)=C1C3(C)C)[C@]1(OC(C)=O)CO[C@@H]1C[C@@H]2O + CN1CCN(c2cc(C(=O)Nc3cc4cc(-c5cnn(C)c5)ccc4cn3)ccn2)CC1	496974-208-R-J2-PDC complex spheroids, growth % test/control	< 0.0316 µM
COc1ccc([C@@H](O)c2cc(-c3ncnc4cc(N5CCOCC5)ccc34)c(F)cc2Cl)nn1 + CN1CCN(c2cc(C(=O)Nc3cc4cc(-c5cnn(C)c5)ccc4cn3)ccn2)CC1	496974-208-R-J2-PDC complex spheroids, growth % test/control	< 0.0316 µM

Fill in IC50 for each of the 6 compounds listed.
1. CC1COCCN1c1cc(C2(S(C)(=N)=O)CC2)nc(-c2ccnc3[nH]ccc23)n1 (centres undefined) + CN1CCN(c2cc(C(=O)Nc3cc4cc(-c5cnn(C)c5)ccc4cn3)ccn2)CC1
2. CCCS(=O)(=O)Nc1ccc(F)c(C(=O)c2c[nH]c3ncc(-c4ccc(Cl)cc4)cc23)c1F + CN1CCN(c2cc(C(=O)Nc3cc4cc(-c5cnn(C)c5)ccc4cn3)ccn2)CC1
3. NC(=O)C(=Cn1cnc(-c2cc(C(F)(F)F)cc(C(F)(F)F)c2)n1)c1cncnc1 + CNC(=O)c1ccc(Nc2nc(OC3CCCC3)c3c(-c4ccc5nc(C)oc5c4)c[nH]c3n2)c(OC)c1
4. C=C(F)C(=O)N1CCN(c2nc(OCC3CCCN3C)nc3c2CCN(c2cccc4cccc(Cl)c24)C3)CC1CC#N (centres undefined) + CNC(=O)c1ccc(Nc2nc(OC3CCCC3)c3c(-c4ccc5nc(C)oc5c4)c[nH]c3n2)c(OC)c1
5. C=CC(=O)Nc1cc(Nc2nccc(-c3cn(C)c4ccccc34)n2)c(OC)cc1N(C)CCN(C)C + CNC(=O)c1ccc(Nc2nc(OC3CCCC3)c3c(-c4ccc5nc(C)oc5c4)c[nH]c3n2)c(OC)c1
6. Nc1ccccc1NC(=O)c1ccc(CNC(=O)OCc2cccnc2)cc1 + CNC(=O)c1ccc(Nc2nc(OC3CCCC3)c3c(-c4ccc5nc(C)oc5c4)c[nH]c3n2)c(OC)c1

Response:
1: < 0.0316 µM; 2: < 0.0316 µM; 3: < 0.00949 µM; 4: 0.549 µM; 5: 0.0758 µM; 6: 3.34 µM

Fill in IC50 for each of the 5 compounds listed.
1. COc1ccc([C@@H](O)c2cc(-c3ncnc4cc(N5CCOCC5)ccc34)c(F)cc2Cl)nn1 + CNC(=O)c1ccc(Nc2nc(OC3CCCC3)c3c(-c4ccc5nc(C)oc5c4)c[nH]c3n2)c(OC)c1
2. C=CC(=O)N1CCN(c2nc(=O)n(-c3c(C)ccnc3C(C)C)c3nc(-c4c(O)cccc4F)c(F)cc23)C(C)C1 (centres undefined) + CN1CCN(c2cc(C(=O)Nc3cc4cc(-c5cnn(C)c5)ccc4cn3)ccn2)CC1
3. C#Cc1c(F)ccc2cc(O)cc(-c3ncc4c(N5CC6CCC(C5)N6)nc(OCC56CCCN5CC(F)C6)nc4c3F)c12 (centres undefined) + CNC(=O)c1ccc(Nc2nc(OC3CCCC3)c3c(-c4ccc5nc(C)oc5c4)c[nH]c3n2)c(OC)c1
4. C=CC(=O)N1CCN(c2nc(=O)n(-c3c(C)ccnc3C(C)C)c3nc(-c4c(O)cccc4F)c(F)cc23)C(C)C1 (centres undefined) + CNC(=O)c1ccc(Nc2nc(OC3CCCC3)c3c(-c4ccc5nc(C)oc5c4)c[nH]c3n2)c(OC)c1
5. CCN1CCN(Cc2ccc(Nc3ncc(F)c(-c4cc(F)c5nc(C)n(C(C)C)c5c4)n3)nc2)CC1 + CNC(=O)c1ccc(Nc2nc(OC3CCCC3)c3c(-c4ccc5nc(C)oc5c4)c[nH]c3n2)c(OC)c1

Response:
["0.306 µM", "< 0.0316 µM", "< 0.0316 µM", "4.7 µM", "> 1 µM"]
